Entries annotated with measured pKd
Biological target: T1, human IL-18BP (human, UniProt O95998 31-194)
T1 construct: UniProt printed as 095998; also called hIL-18BP
T1 sequence: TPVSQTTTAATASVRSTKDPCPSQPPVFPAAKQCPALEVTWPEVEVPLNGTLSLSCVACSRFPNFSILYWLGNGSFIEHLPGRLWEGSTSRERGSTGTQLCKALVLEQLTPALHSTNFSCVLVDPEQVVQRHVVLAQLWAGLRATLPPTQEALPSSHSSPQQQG
Assay: BLI, apparent KD
Friendly reminder that pKd comes from taking -log10 of the concentration in mol/L.

As a guide, the following entries are already answered.
Binder: SA302a HC-T30L (antibody, V domains shown) VH: QVQLQESGPGLVKPSQTLSLTCTVSGYSILSDYNAHWIRQPPGKGLEWIGYIHYSGSTNYNPSLKSRVTISRDTSKNQFSLKLSSVTAADTAVYYCARNYGSIYVNYFDYWGQGTLVTVSS VL: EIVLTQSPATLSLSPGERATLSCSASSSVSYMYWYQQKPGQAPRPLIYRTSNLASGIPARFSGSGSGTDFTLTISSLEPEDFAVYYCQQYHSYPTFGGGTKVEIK
Measured: 8.91
--
Binder: SA302a HC-S31N (antibody, V domains shown) VH: QVQLQESGPGLVKPSQTLSLTCTVSGYSITNDYNAHWIRQPPGKGLEWIGYIHYSGSTNYNPSLKSRVTISRDTSKNQFSLKLSSVTAADTAVYYCARNYGSIYVNYFDYWGQGTLVTVSS VL: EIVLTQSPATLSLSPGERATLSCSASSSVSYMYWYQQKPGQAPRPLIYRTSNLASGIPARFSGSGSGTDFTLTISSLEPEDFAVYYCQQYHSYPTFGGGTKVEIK
Measured: 9.01
--
Binder: SA302a HC-Y33aE (antibody, V domains shown) VH: QVQLQESGPGLVKPSQTLSLTCTVSGYSITSDENAHWIRQPPGKGLEWIGYIHYSGSTNYNPSLKSRVTISRDTSKNQFSLKLSSVTAADTAVYYCARNYGSIYVNYFDYWGQGTLVTVSS VL: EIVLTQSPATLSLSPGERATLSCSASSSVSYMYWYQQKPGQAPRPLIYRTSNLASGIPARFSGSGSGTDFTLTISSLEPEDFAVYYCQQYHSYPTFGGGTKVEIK
Measured: 8.06
--
Binder: SA302a HC-D33Q (antibody, V domains shown, IgG1 kappa) VH: QVQLQESGPGLVKPSQTLSLTCTVSGYSITSQYNAHWIRQPPGKGLEWIGYIHYSGSTNYNPSLKSRVTISRDTSKNQFSLKLSSVTAADTAVYYCARNYGSIYVNYFDYWGQGTLVTVSS VL: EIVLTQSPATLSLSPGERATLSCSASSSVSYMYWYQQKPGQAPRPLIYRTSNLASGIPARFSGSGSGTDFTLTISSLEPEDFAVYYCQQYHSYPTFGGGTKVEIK
Measured: 8.53
--
Binder: SA302a HC-Y33aN (antibody, V domains shown) VH: QVQLQESGPGLVKPSQTLSLTCTVSGYSITSDNNAHWIRQPPGKGLEWIGYIHYSGSTNYNPSLKSRVTISRDTSKNQFSLKLSSVTAADTAVYYCARNYGSIYVNYFDYWGQGTLVTVSS VL: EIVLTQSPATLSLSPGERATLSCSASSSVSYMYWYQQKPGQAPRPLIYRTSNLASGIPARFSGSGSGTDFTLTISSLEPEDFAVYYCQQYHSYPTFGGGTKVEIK
Measured: 8.23
--
Binder: SA302a HC-N33bP (antibody, V domains shown) VH: QVQLQESGPGLVKPSQTLSLTCTVSGYSITSDYPAHWIRQPPGKGLEWIGYIHYSGSTNYNPSLKSRVTISRDTSKNQFSLKLSSVTAADTAVYYCARNYGSIYVNYFDYWGQGTLVTVSS VL: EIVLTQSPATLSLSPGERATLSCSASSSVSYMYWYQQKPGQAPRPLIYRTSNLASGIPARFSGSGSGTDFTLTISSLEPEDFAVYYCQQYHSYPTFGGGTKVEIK
Measured: 8.22
--
Binder: SA302a HC-S31G (antibody, V domains shown) VH: QVQLQESGPGLVKPSQTLSLTCTVSGYSITGDYNAHWIRQPPGKGLEWIGYIHYSGSTNYNPSLKSRVTISRDTSKNQFSLKLSSVTAADTAVYYCARNYGSIYVNYFDYWGQGTLVTVSS VL: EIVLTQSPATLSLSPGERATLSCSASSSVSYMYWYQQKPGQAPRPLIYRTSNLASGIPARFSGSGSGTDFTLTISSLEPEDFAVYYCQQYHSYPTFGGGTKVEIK
Measured: 8.79
--
Binder: SA302a HC-Y33aV (antibody, V domains shown) VH: QVQLQESGPGLVKPSQTLSLTCTVSGYSITSDVNAHWIRQPPGKGLEWIGYIHYSGSTNYNPSLKSRVTISRDTSKNQFSLKLSSVTAADTAVYYCARNYGSIYVNYFDYWGQGTLVTVSS VL: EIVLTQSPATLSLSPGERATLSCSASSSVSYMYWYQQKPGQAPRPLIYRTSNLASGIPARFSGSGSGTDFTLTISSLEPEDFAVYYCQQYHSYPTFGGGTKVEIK
Measured: 8.35

Give the reported pKd for this binder. SA302a HC-T30Y (antibody, V domains shown) VH: QVQLQESGPGLVKPSQTLSLTCTVSGYSIYSDYNAHWIRQPPGKGLEWIGYIHYSGSTNYNPSLKSRVTISRDTSKNQFSLKLSSVTAADTAVYYCARNYGSIYVNYFDYWGQGTLVTVSS VL: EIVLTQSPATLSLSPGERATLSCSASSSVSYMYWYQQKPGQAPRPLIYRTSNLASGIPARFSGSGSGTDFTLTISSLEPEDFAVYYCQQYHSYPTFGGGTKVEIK
8.94

Give the reported pKd for this binder. SA302a HC-H35E (antibody, V domains shown, IgG1 kappa) VH: QVQLQESGPGLVKPSQTLSLTCTVSGYSITSDYNAEWIRQPPGKGLEWIGYIHYSGSTNYNPSLKSRVTISRDTSKNQFSLKLSSVTAADTAVYYCARNYGSIYVNYFDYWGQGTLVTVSS VL: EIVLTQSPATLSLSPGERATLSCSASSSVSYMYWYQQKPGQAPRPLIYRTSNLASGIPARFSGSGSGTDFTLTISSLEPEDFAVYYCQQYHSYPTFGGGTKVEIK
8.80
